test.system: recombinant human NAE enzyme (Homo sapiens)
Construct: His (N); made in house; host or cells: Sf9 insect cells (baculovirus, Bac-to-Bac)
Sequence (Q8TBC4 whole entry): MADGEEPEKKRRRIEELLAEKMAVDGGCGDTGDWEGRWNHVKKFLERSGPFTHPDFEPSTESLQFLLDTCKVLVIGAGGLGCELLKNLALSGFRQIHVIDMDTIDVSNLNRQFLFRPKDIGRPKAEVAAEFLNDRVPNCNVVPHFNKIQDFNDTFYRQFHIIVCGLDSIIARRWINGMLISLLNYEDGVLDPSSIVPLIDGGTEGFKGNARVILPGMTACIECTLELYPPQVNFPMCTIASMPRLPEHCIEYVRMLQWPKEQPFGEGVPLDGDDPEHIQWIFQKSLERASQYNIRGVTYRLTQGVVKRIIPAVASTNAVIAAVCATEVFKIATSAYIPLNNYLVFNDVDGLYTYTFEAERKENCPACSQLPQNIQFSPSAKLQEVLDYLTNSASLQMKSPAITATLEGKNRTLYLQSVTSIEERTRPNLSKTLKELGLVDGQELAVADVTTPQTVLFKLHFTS
Sequence (Q13564 whole entry partner): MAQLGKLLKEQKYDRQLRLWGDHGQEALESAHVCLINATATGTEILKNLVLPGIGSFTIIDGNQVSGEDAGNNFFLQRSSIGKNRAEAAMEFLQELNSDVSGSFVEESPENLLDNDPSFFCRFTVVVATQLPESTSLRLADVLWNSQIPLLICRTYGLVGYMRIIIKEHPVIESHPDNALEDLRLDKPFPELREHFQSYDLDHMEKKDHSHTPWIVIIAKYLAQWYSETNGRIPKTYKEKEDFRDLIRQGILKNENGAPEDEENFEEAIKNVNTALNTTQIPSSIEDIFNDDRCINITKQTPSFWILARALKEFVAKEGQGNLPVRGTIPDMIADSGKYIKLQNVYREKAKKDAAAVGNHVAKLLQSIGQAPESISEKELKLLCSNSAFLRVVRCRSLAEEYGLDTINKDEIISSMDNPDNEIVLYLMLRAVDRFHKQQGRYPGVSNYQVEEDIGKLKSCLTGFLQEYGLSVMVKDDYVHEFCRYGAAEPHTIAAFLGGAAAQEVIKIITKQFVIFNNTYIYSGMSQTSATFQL
method: Nedd8-Activating Enzyme (NAE) HTRF Assay
Format: biochemical
cond: 20 μM ATP, bound given in nM
This listing pairs compounds with measured IC50.

Record request: IC50 value, item NS(=O)(=O)OC[C@@H]1C[C@@H](Oc2cc(N3Cc4ccccc4C3)ncn2)C[C@@H]1O [Compound I-120]
> 500 nM
